assay_procedure: Laser flash photolysis: nucleophilic addition reaction rate constant and time constant with glutathione
Format: physicochemical
measurement_setup: glutathione 10 mM; pH 7.4, 10 mM sodium phosphate buffer, 295 K
Rule: τ (nucleophilic addition reaction time constant) of 0.7 ms or more gives Criterion met; anything lower gives Criterion not met.

Some solved entries appear below for comparison.
structure_smiles_string	class_name
C[Si]1(C)C2=CC(=N)C=CC2=C(c2ccccc2)c2ccc(N)cc21	Criterion met
CN(C)c1ccc2c(c1)[Si](C)(C)C1=C/C(=[N+](\C)CCCC(=O)O)C=CC1=C2	Criterion met
CN(C)c1ccc2c(c1)[Si](C)(C)C1=CC(=[N+](C)C)C=CC1=C2	Criterion not met

IN: Form field: τ (nucleophilic addition reaction time constant) at least 0.7 ms? Entry: CC1(C)C2=CC(=N)C=CC2=Cc2ccc(N)cc21
OUT: Criterion not met

---

assay_procedure: Laser flash photolysis: nucleophilic addition reaction rate constant and time constant with glutathione
Assay type: physicochemical
measurement_setup: glutathione 1 mM; pH 7.4, 10 mM sodium phosphate buffer, 295 K
Procedure: Change over time of transient absorption of the probe compounds of the present invention at various glutathione concentrations was measured using laser flash photolysis, and a nucleophilic addition reaction rate constant k and a nucleophilic addition reaction rime constant T in the nucleophilic addition-dissociation equilibrium reaction between glutathione and the probe compounds of the present invention were calculated. […]
Rule: τ (nucleophilic addition reaction time constant) of 6 ms or more gives MET; anything lower gives NOT MET.

Some solved entries appear below for comparison.
structure_smiles_string	class_name
CN(C)c1ccc2c(c1)[Si](C)(C)C1=CC(=[N+](C)C)C=CC1=C2	NOT MET
CC1(C)C2=CC(=N)C=CC2=Cc2ccc(N)cc21	NOT MET

IN: Form field: τ (nucleophilic addition reaction time constant) at least 6 ms? Entry: C[Si]1(C)C2=CC(=N)C=CC2=C(c2ccccc2)c2ccc(N)cc21
OUT: MET

IN: Form field: τ (nucleophilic addition reaction time constant) at least 6 ms? Entry: CC1(C)C2=C/C(=N/CCCC(=O)O)C=CC2=Cc2ccc(N)cc21
OUT: MET

IN: Form field: τ (nucleophilic addition reaction time constant) at least 6 ms? Entry: CN(C)c1ccc2c(c1)[Si](C)(C)C1=C/C(=[N+](\C)CCCC(=O)O)C=CC1=C2
OUT: MET

---

assay_procedure: Measurement of the fluorescence quantum yield
Type: physicochemical
measurement_setup: 1 μM probe, 1% DMSO aqueous solution, pH 7.4 (200 mM sodium phosphate buffer)
measured_property: Fluorescence quantum yield

Some solved cases for reference:
structure_smiles_string	Fluorescence quantum yield
CN(C)c1ccc2c(c1)[Si](C)(C)C1=C/C(=[N+](\C)CCCC(=O)O)C=CC1=C2	0.46
CC1(C)C2=C/C(=N/CCCC(=O)O)C=CC2=Cc2ccc(N)cc21	0.69

IN: Output Fluorescence quantum yield of CC1(C)C2=CC(=N)C=CC2=Cc2ccc(N)cc21
OUT: 0.70

IN: Output Fluorescence quantum yield of CN(C)c1ccc2c(c1)[Si](C)(C)C1=CC(=[N+](C)C)C=CC1=C2
OUT: 0.39

IN: Output Fluorescence quantum yield of CN(C)c1ccc2c(c1)[Si](C)(C)C1=C/C(=[N+](\C)CCCC(=O)ON3C(=O)CCC3=O)C=CC1=C2
OUT: 0.46

IN: Output Fluorescence quantum yield of CN(C)c1ccc2c(c1)[Si](C)(C)C1=C/C(=[N+](\C)CCCC(=O)NCCOCCOCCCCCCCl)C=CC1=C2
OUT: 0.49

IN: Output Fluorescence quantum yield of CN(C)c1ccc2c(c1)[Si](C)(C)C1=C/C(=[N+](\C)CCCC(=O)NCc3ccc(COc4nc(N)nc5[nH]cnc45)cc3)C=CC1=C2
OUT: 0.27

---

assay_procedure: Laser flash photolysis: nucleophilic addition reaction rate constant and time constant with glutathione
Assay type: physicochemical
measurement_setup: glutathione 5 mM; pH 7.4, 10 mM sodium phosphate buffer, 295 K
Protocol: Change over time of transient absorption of the probe compounds of the present invention at various glutathione concentrations was measured using laser flash photolysis, and a nucleophilic addition reaction rate constant k and a nucleophilic addition reaction rime constant T in the nucleophilic addition-dissociation equilibrium reaction between glutathione and the probe compounds of the present invention were calculated. […]
Rule: k (nucleophilic addition reaction rate constant) of 600 s⁻¹ or more gives Met; anything lower gives Not met.

Some solved entries appear below for comparison.
structure_smiles_string	class_name
CN(C)c1ccc2c(c1)[Si](C)(C)C1=CC(=[N+](C)C)C=CC1=C2	Met
C[Si]1(C)C2=CC(=N)C=CC2=C(c2ccccc2)c2ccc(N)cc21	Not met
CN(C)c1ccc2c(c1)[Si](C)(C)C1=C/C(=[N+](\C)CCCC(=O)O)C=CC1=C2	Not met

With those in mind, consider the next compound.
IN: Form field: k (nucleophilic addition reaction rate constant) at least 600 s⁻¹? Entry: CC1(C)C2=CC(=N)C=CC2=Cc2ccc(N)cc21
OUT: Met

---

Below is a list of entries, each paired with its recorded k (nucleophilic addition reaction rate constant) value.
assay_procedure: Laser flash photolysis: nucleophilic addition reaction rate constant and time constant with glutathione
Assay type: physicochemical
measurement_setup: glutathione 10 mM; pH 7.4, 10 mM sodium phosphate buffer, 295 K
Note: unit s⁻¹ is implicit; provide only the numeric part.

Some solved cases for reference:
structure_smiles_string	measured_result
CC1(C)C2=C/C(=N/CCCC(=O)O)C=CC2=Cc2ccc(N)cc21	1410
C[Si]1(C)C2=CC(=N)C=CC2=C(c2ccccc2)c2ccc(N)cc21	25.0
CN(C)c1ccc2c(c1)[Si](C)(C)C1=C/C(=[N+](\C)CCCC(=O)O)C=CC1=C2	1080

IN: Output k (nucleophilic addition reaction rate constant) of CN(C)c1ccc2c(c1)[Si](C)(C)C1=CC(=[N+](C)C)C=CC1=C2
OUT: 2290

IN: Output k (nucleophilic addition reaction rate constant) of CC1(C)C2=CC(=N)C=CC2=Cc2ccc(N)cc21
OUT: 5260

Data credit: patent US10837909B2
